Test system: MS2 coat protein
protocol notes: apparent Kd, MS2 coat protein; higher = weaker binding; RNA-MaP array; tryptophan 2.4 mM where present
particulars: designed as: ON switch for tryptophan; no ligand
Kindly return Satisfied if reported apparent Kd is no lower than 100 nM; return Not satisfied if it is lower.

ACACAUGAGGAUCACCCAUGUUGAGGAACACGAGGACCGGUACGGCCGCCACUCGACACAUGAGGAUCACCCAUGUGAUCACCCA | Satisfied
GGGAGGGAGGCGGCCGCCACUGAUUUUCAUAUAUAUAUAACAUGAGGAUCACCCAUGUAGAUAUACAGGACCGGGCCUUUUUUUU | Not satisfied

In: Exam item: decide whether the reported apparent Kd for "AGAAUAUAGUCGGCCGCCACUCUACAAACAUGAGGAUCACCCAUGUUCACAUAGUGGAAACACAUGAGGACCGGGACAUAGGCAU" is at least 100 nM.
Out: Not satisfied

In: Say whether "GACCCAUGAGUUGUAAAAGCUCAUGGGUCGCGAGGACCGGUACGGCCGCCACUCGGCUGUACAUGAGGAUCACCCAUGUCAGGGU" shows apparent Kd of 100 nM or more.
Out: Satisfied
